Entry source: patent US11236078B2

Measured IC50 of individual entries
- Measured on: human Nav1.5 (hNav1.5) (Homo sapiens, UniProt Q14524)
- Construct: expressed in transfected cells
- Sequence (Q14524 whole entry): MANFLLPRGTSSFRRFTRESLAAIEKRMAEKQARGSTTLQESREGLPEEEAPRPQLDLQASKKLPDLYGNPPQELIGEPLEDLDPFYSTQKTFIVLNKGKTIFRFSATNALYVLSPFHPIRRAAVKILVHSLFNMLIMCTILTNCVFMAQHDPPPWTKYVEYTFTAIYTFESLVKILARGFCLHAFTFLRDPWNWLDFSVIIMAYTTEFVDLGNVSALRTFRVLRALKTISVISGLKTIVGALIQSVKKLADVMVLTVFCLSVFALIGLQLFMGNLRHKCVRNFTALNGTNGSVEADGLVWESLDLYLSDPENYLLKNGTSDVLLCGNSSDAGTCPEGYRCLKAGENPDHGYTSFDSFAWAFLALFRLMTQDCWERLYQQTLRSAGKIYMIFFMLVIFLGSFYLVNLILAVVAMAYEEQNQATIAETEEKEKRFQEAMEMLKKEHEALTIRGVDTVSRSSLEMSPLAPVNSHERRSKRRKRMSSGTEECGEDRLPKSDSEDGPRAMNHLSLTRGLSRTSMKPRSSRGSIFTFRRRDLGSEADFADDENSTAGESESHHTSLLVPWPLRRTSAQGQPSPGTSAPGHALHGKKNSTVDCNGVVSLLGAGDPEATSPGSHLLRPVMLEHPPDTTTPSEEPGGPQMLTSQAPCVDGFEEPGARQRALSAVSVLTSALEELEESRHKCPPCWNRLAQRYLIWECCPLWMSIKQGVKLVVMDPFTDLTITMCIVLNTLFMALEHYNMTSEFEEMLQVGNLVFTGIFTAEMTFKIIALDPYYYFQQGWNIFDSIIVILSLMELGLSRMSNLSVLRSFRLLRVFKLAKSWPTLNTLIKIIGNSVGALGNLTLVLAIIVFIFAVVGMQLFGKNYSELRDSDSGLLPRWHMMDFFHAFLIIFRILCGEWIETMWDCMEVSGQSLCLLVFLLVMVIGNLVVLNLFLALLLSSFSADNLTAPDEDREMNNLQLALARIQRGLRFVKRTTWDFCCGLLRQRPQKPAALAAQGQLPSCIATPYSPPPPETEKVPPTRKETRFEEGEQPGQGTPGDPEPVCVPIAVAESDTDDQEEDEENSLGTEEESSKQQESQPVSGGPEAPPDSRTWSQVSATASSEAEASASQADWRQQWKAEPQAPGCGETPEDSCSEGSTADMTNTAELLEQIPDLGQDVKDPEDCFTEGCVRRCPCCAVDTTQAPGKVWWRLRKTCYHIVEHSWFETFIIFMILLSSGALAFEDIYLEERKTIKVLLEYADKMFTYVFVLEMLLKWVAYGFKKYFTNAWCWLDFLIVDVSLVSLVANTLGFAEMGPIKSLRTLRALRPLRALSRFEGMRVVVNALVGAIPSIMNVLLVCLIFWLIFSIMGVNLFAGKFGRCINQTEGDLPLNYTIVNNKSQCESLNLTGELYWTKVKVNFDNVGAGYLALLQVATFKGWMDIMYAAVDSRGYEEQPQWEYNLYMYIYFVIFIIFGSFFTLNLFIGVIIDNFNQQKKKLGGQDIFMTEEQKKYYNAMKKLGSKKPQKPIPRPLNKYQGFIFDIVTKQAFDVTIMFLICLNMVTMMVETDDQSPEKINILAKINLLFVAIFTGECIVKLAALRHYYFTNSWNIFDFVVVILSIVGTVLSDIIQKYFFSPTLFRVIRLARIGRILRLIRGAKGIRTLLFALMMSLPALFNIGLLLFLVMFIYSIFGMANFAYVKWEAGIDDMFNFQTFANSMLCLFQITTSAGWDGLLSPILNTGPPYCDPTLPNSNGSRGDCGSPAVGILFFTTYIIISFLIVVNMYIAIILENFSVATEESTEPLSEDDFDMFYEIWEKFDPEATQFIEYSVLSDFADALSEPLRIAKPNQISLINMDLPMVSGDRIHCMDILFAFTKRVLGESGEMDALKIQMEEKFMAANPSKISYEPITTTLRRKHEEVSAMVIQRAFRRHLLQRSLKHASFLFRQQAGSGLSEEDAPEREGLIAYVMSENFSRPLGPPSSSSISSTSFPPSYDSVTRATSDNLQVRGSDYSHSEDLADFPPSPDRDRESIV
- Experiment summary: hNav1.5 slow inactivation block, manual patchclamp
- Assay type: cell-based
- Condition label: HEK 293F cells stably expressing hNav1.5
State the answer as a number, implicitly in nM.

> print(dat)
                         structure.notation                               measured.on  test.result
1  O=C(NCc1cccc(-c2cc(C(F)(F)F)cc(C(F)(F)F)c2)c1)[C@@H]1C[C@H](F)CN1  human Nav1.5 (hNav1.5) (Homo sapiens, UniProt Q14524)         1040

Consider now this further molecule.
Lab book: IC50 of COc1cc(Oc2cc(F)c(S(=O)(=O)Nc3ncns3)cc2F)cc(C(F)(F)F)c1 noted as 1600

* * *

- Measured on: rat Nav1.2 (rNav1.2) (Rattus norvegicus, UniProt P04775)
- Construct: expressed in transfected cells
- Sequence (P04775 whole entry): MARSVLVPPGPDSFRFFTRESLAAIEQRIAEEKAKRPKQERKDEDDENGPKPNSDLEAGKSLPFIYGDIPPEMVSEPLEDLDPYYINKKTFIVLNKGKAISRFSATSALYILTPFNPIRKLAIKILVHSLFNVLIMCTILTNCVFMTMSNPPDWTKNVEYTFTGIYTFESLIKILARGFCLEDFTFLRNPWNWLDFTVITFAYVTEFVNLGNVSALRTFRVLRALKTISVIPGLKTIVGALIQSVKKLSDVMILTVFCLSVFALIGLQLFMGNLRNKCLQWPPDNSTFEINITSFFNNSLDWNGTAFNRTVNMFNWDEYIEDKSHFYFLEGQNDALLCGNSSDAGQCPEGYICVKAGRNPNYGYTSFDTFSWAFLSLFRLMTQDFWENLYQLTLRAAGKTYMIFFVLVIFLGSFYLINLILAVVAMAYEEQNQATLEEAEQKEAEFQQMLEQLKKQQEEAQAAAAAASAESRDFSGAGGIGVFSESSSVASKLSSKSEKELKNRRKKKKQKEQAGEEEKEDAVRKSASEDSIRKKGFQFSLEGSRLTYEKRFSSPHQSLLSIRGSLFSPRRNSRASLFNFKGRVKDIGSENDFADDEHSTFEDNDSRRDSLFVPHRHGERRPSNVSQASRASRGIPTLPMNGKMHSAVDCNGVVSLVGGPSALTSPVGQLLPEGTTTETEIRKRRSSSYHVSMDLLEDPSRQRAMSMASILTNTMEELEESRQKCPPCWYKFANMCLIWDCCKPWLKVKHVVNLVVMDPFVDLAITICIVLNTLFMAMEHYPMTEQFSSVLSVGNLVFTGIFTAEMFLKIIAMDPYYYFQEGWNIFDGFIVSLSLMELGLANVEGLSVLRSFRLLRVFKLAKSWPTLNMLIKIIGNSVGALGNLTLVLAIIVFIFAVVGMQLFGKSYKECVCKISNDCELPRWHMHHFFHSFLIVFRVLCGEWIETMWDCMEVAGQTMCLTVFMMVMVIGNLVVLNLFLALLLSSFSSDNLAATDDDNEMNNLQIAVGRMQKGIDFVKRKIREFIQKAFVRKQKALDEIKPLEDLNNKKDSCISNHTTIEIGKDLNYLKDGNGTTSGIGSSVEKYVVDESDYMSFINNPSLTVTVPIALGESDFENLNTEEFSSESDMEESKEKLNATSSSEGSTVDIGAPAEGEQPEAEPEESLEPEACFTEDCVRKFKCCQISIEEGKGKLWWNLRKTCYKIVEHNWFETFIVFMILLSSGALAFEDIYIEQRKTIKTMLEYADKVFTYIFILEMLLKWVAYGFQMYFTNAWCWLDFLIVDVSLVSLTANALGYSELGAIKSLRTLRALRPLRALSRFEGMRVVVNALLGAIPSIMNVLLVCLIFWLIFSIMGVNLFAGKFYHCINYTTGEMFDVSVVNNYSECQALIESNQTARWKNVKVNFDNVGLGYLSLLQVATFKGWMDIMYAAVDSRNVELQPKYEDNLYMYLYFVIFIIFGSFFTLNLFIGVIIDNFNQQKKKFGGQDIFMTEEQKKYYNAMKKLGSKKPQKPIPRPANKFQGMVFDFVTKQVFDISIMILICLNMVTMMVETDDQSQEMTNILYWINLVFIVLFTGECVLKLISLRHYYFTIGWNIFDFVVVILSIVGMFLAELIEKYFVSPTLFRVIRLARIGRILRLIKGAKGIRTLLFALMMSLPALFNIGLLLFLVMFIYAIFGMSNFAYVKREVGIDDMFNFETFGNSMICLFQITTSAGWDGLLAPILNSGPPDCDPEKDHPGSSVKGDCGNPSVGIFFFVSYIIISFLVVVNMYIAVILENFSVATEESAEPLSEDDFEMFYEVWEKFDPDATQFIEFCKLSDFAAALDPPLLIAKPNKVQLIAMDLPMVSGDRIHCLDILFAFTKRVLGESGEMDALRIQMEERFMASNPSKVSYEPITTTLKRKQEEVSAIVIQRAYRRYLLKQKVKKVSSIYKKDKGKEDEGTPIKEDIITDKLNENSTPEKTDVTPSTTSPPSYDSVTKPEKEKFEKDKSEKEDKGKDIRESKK
- Experiment summary: rNav1.2 slow inactivation block, automated patchclamp
- Assay type: cell-based
- Condition label: HEK 293F cells stably expressing rNav1.2
Under this convention, y denotes IC50 strictly below 4000 nM and n denotes IC50 at or above 4000 nM.

See these solved cases before continuing.
> print(dat)
                         structure.notation  assigned.category
1  NC1(C(=O)NCc2cc(-c3cc(C(F)(F)F)cc(C(F)(F)F)c3)cc(C(F)(F)F)c2)CCCC1                  y
2  O=C(NCc1cc(F)c(Oc2cc(C(F)(F)F)cc(C(F)(F)F)c2)cc1F)[C@@H]1CCCN1                  y

Hello, I'm reviewing records and need to know if IC50 of O=S(=O)(Nc1ncns1)c1cc(F)c(Oc2cc(F)cc(Cl)c2)cc1F is below 4000 nM. Could you check?
n

Hello, I'm reviewing records and need to know if IC50 of CNC(=O)c1cc(Oc2cc(F)c(S(=O)(=O)Nc3ncns3)cc2F)cc(C(F)(F)F)c1 is below 4000 nM. Could you check?
n

Hello, I'm reviewing records and need to know if IC50 of CS(=O)(=O)NCc1cc(F)c(Oc2cc(C(F)(F)F)cc(C(F)(F)F)c2)cc1F is below 4000 nM. Could you check?
n

Hello, I'm reviewing records and need to know if IC50 of O=S(=O)(Nc1ncns1)c1cc(F)c(Oc2cc(F)cc(C(F)(F)F)c2)cc1F is below 4000 nM. Could you check?
n

Hello, I'm reviewing records and need to know if IC50 of O=C(NCc1cccc(-c2cc(C(F)(F)F)cc(C(F)(F)F)c2)c1)[C@@H]1C[C@H](F)CN1 is below 4000 nM. Could you check?
n

Hello, I'm reviewing records and need to know if IC50 of CN1CCC[C@H]1C(=O)NCc1cccc(-c2cc(C(F)(F)F)cc(C(F)(F)F)c2)c1 is below 4000 nM. Could you check?
n

Hello, I'm reviewing records and need to know if IC50 of NC(=O)c1cc(Oc2cc(F)c(S(=O)(=O)Nc3ncns3)cc2F)cc(C(F)(F)F)c1 is below 4000 nM. Could you check?
n

Hello, I'm reviewing records and need to know if IC50 of O=C(O)c1cc(Oc2cc(F)c(S(=O)(=O)Nc3ncns3)cc2F)cc(C(F)(F)F)c1 is below 4000 nM. Could you check?
n

Hello, I'm reviewing records and need to know if IC50 of N#Cc1cc(S(=O)(=O)Nc2ncns2)ccc1Oc1cc(C(F)(F)F)cc(C(F)(F)F)c1 is below 4000 nM. Could you check?
n
